- EXPERIMENTAL PROTOCOL: AUC in Sprague-Dawley rat at 3 mg/kg, iv
- Assay type: ADME, organism-based
- Parameters: dose 3 mg/kg, route intravenous
- CONDITION INFO: plasma
MEASURED QUANTITY: AUC (ng·h/mL)
Answers are plain numbers, in ng·h/mL.

# compound "CC(C)N(CCCCOCC(=O)O)c1cnc(-c2ccccc2)c(-c2ccccc2)n1" ; its AUC = 5200

* * *

- EXPERIMENTAL PROTOCOL: Oral bioavailability in Sprague-Dawley rat at 10 mg/kg
- Assay type: ADME, organism-based
- CONDITION INFO: in vivo
MEASURED QUANTITY: bioavailability (%)
Answers are plain numbers, in %.

The reported value for "CC(C)N(CCCCOCC(=O)O)c1cnc(-c2ccccc2)c(-c2ccccc2)n1" in terms of bioavailability is 102

* * *

- EXPERIMENTAL PROTOCOL: Tmax in cynomolgus monkey at 1 mg/kg, po
- Format: ADME, organism-based, Macaca fascicularis
- Parameters: dose 1 mg/kg, route oral
- CONDITION INFO: in vivo
MEASURED QUANTITY: Tmax
Provide the measurement as a number trailed by its unit.

The measured Tmax associated with "CC(C)N(CCCCOCC(=O)O)c1cnc(-c2ccccc2)c(-c2ccccc2)n1" reads 2.3 h

* * *

- EXPERIMENTAL PROTOCOL: Half life in Sprague-Dawley rat at 3 mg/kg, iv
- Format: ADME, organism-based
- Set-up: dose 3 mg/kg, route intravenous
- CONDITION INFO: in vivo
MEASURED QUANTITY: half-life (min)
Give bare numbers, in min.

The recorded half-life for entry "CC(C)N(CCCCOCC(=O)O)c1cnc(-c2ccccc2)c(-c2ccccc2)n1" equals 294

* * *

- EXPERIMENTAL PROTOCOL: Cmax in Sprague-Dawley rat at 10 mg/kg, po
- Assay type: ADME, organism-based
- Parameters: dose 10 mg/kg, route oral
- CONDITION INFO: in vivo
MEASURED QUANTITY: Cmax (ng/mL)
One number for each entry, in ng/mL.

Cmax reported for this compound "CC(C)N(CCCCOCC(=O)O)c1cnc(-c2ccccc2)c(-c2ccccc2)n1" : 1900

* * *

- EXPERIMENTAL PROTOCOL: Tmax in Beagle dog at 3 mg/kg, po
- Format: ADME, organism-based, Canis lupus familiaris
- Set-up: dose 3 mg/kg, route oral
- CONDITION INFO: in vivo
MEASURED QUANTITY: Tmax (min)
One number for each entry, in min.

Looking up "CC(C)N(CCCCOCC(=O)O)c1cnc(-c2ccccc2)c(-c2ccccc2)n1" , I found its Tmax recorded as 48

* * *

- EXPERIMENTAL PROTOCOL: AUC in Beagle dog at 3 mg/kg, po
- Type: ADME, organism-based, Canis lupus familiaris
- Design: dose 3 mg/kg, route oral
- CONDITION INFO: plasma
MEASURED QUANTITY: AUC (µg·h/mL)
Numbers only, in µg·h/mL.

The reported value for "CC(C)N(CCCCOCC(=O)O)c1cnc(-c2ccccc2)c(-c2ccccc2)n1" in terms of AUC is 176

* * *

- EXPERIMENTAL PROTOCOL: Cmax in Beagle dog at 3 mg/kg, po
- Type: ADME, organism-based, Canis lupus familiaris
- Design: dose 3 mg/kg, route oral
- CONDITION INFO: in vivo
MEASURED QUANTITY: Cmax (ng/mL)
Numbers only, in ng/mL.

For record "CC(C)N(CCCCOCC(=O)O)c1cnc(-c2ccccc2)c(-c2ccccc2)n1" the listed Cmax is 14900

* * *

- EXPERIMENTAL PROTOCOL: Oral bioavailability in Beagle dog at 3 mg/kg
- Type: ADME, organism-based, Canis lupus familiaris
- CONDITION INFO: in vivo
MEASURED QUANTITY: bioavailability (%)
Answers are plain numbers, in %.

// recorded bioavailability for "CC(C)N(CCCCOCC(=O)O)c1cnc(-c2ccccc2)c(-c2ccccc2)n1" : 80

* * *

- EXPERIMENTAL PROTOCOL: AUC in Beagle dog at 1 mg/kg, iv
- Type: ADME, organism-based, Canis lupus familiaris
- Parameters: dose 1 mg/kg, route intravenous
- CONDITION INFO: plasma
MEASURED QUANTITY: AUC (ng·h/mL)
Numbers only, in ng·h/mL.

Per the records, this compound ( "CC(C)N(CCCCOCC(=O)O)c1cnc(-c2ccccc2)c(-c2ccccc2)n1" ) has AUC equal to 72500

* * *

- EXPERIMENTAL PROTOCOL: Half life in Beagle dog at 3 mg/kg, po
- Format: ADME, organism-based, Canis lupus familiaris
- Set-up: dose 3 mg/kg, route oral
- CONDITION INFO: in vivo
MEASURED QUANTITY: half-life (h)
One number for each entry, in h.

// field: half-life; key: "CC(C)N(CCCCOCC(=O)O)c1cnc(-c2ccccc2)c(-c2ccccc2)n1" ; value = 6.2

* * *

- EXPERIMENTAL PROTOCOL: AUC in cynomolgus monkey at 1 mg/kg, po
- Assay type: ADME, organism-based, Macaca fascicularis
- Parameters: dose 1 mg/kg, route oral
- CONDITION INFO: plasma
MEASURED QUANTITY: AUC (ng·h/mL)
Answers are plain numbers, in ng·h/mL.

Per the records, this compound ( "CC(C)N(CCCCOCC(=O)O)c1cnc(-c2ccccc2)c(-c2ccccc2)n1" ) has AUC equal to 650

Value source: ChEMBL document CHEMBL1137448
